Measurement record for Hsp90α (Homo sapiens); quantity recorded: log10(IC50).
measuredProperty: log10(IC50) (log10 of the value in nM)

| smilesEntry | log10(IC50) |
| --- | --- |
| Cc1cccc(Nc2ncnc3sc4c(c23)CCN(C(=O)c2cc(C(C)C)c(O)cc2O)C4)c1 | 2.50 |
| CC(C)c1cc(C(=O)N2CCc3c(sc4ncnc(Nc5ccc(Br)cc5)c34)C2)c(O)cc1O | 2.46 |
| CCc1cccc(Nc2ncnc3sc4c(c23)CCN(C(=O)c2cc(C(C)C)c(O)cc2O)C4)c1 | 2.57 |
| CC(C)c1cc(C(=O)N2CCc3c(sc4ncnc(N(C)C)c34)C2)c(O)cc1O | 1.90 |
| Cc1ccc(Nc2ncnc3sc4c(c23)CCN(C(=O)c2cc(C(C)C)c(O)cc2O)C4)c(C)c1 | 3.21 |
| CC(C)c1cccc(Nc2ncnc3sc4c(c23)CCN(C(=O)c2cc(C(C)C)c(O)cc2O)C4)c1 | 2.67 |
| CC(C)c1cc(C(=O)N2CCc3c(sc4ncnc(Nc5ccc(Cl)cc5)c34)C2)c(O)cc1O | 2.50 |
| CC(C)c1cc(C(=O)N2CCc3c(sc4ncnc(Nc5cccc(O)c5)c34)C2)c(O)cc1O | 2.32 |
| CC(C)c1cc(C(=O)N2CCc3c(sc4ncnc(Nc5cccc(F)c5)c34)C2)c(O)cc1O | 2.36 |
| CC(C)c1cc(C(=O)N2CCc3c(sc4ncnc(N5CCCCC5)c34)C2)c(O)cc1O | 1.72 |
| CC(C)c1cc(C(=O)N2CCc3c(sc4ncnc(N5CCCC5)c34)C2)c(O)cc1O | 1.81 |
| CC(C)c1cc(C(=O)N2CCc3c(sc4ncnc(Nc5cccc(Cl)c5)c34)C2)c(O)cc1O | 2.29 |
| COc1cccc(Nc2ncnc3sc4c(c23)CCN(C(=O)c2cc(C(C)C)c(O)cc2O)C4)c1 | 2.32 |

----------
pIC50: −log10 of the molar value.
Measurement record for VEGFR2 (Homo sapiens, UniProt P35968); quantity recorded: pIC50.

| smilesEntry | pIC50 |
| --- | --- |
| CC(C)c1cc(C(=O)N2CCc3c(sc4ncnc(Nc5ccc(Cl)cc5)c34)C2)c(O)cc1O | < 5.00 |
| COc1cccc(Nc2ncnc3sc4c(c23)CCN(C(=O)c2cc(C(C)C)c(O)cc2O)C4)c1 | < 5.00 |
| CC(C)c1cc(C(=O)N2CCc3c(sc4ncnc(Nc5cccc(Cl)c5)c34)C2)c(O)cc1O | < 5.00 |
| Cc1ccc(Nc2ncnc3sc4c(c23)CCN(C(=O)c2cc(C(C)C)c(O)cc2O)C4)c(C)c1 | 6.77 |
| CCc1cccc(Nc2ncnc3sc4c(c23)CCN(C(=O)c2cc(C(C)C)c(O)cc2O)C4)c1 | < 5.00 |
| Cc1cccc(Nc2ncnc3sc4c(c23)CCN(C(=O)c2cc(C(C)C)c(O)cc2O)C4)c1 | < 5.00 |
| CC(C)c1cc(C(=O)N2CCc3c(sc4ncnc(Nc5cccc(O)c5)c34)C2)c(O)cc1O | 6.15 |
| CC(C)c1cc(C(=O)N2CCc3c(sc4ncnc(Nc5ccc(Br)cc5)c34)C2)c(O)cc1O | < 5.00 |
| CC(C)c1cccc(Nc2ncnc3sc4c(c23)CCN(C(=O)c2cc(C(C)C)c(O)cc2O)C4)c1 | < 5.00 |
| CC(C)c1cc(C(=O)N2CCc3c(sc4ncnc(Nc5cccc(F)c5)c34)C2)c(O)cc1O | < 5.00 |
